- experimental-target: CDK3/Cyclin E (Homo sapiens) (UniProt P24864+Q00526);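 note: reported percentages are mean inhibition values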
- Sequence (P24864 whole entry, looked up): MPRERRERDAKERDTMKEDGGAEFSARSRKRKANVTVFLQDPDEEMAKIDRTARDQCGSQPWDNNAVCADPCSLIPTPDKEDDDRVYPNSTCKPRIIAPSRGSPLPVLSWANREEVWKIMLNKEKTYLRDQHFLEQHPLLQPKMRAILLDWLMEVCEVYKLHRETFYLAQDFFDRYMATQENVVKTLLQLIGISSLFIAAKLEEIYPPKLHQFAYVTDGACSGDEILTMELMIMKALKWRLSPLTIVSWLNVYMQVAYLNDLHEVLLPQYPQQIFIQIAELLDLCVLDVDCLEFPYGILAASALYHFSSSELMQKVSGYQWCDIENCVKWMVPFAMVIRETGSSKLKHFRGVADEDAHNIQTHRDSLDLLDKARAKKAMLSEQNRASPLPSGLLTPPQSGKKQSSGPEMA
- Sequence (Q00526 whole entry, looked up): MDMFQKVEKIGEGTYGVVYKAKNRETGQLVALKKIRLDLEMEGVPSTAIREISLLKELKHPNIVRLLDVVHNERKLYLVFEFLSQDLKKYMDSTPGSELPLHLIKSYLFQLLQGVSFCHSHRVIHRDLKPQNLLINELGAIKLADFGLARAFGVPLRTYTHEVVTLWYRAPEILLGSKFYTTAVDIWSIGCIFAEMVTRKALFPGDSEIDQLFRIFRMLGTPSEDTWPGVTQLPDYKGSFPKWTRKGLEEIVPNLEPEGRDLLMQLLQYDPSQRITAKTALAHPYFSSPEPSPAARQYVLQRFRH
- run-parameters: at 0.1 µM
# inhibition listing for each entry below
measured-quantity: inhibition (%)

> print(dat)
                   compound.structure.string  value.unit  measured.value
 1  NS(=O)(=O)c1ccc(Nc2cc(-c3ccc(O)c(F)c3)n[nH]2)cc1           %            9.52
 2    Clc1ccc(CNc2nccc(-c3cnn4ncccc34)n2)cc1           %            3.02
 3  Cc1ccc(NC(=O)c2ccoc2)cc1-c1ccc(C(=O)NCC2CC2)cc1           %           -0.03
 4  Fc1ccc(-c2ncn(C3CCNCC3)c2-c2ccnc(Oc3ccc4c(c3)OCO4)n2)cc1           %           -0.22
 5  COc1cc(N2CCN(C(C)C)CC2)ccc1Nc1nc(Nc2ccc(F)cc2C(=O)NC[C@@H](O)CO)c2cc[nH]c2n1           %            3.35
 6  NC(=O)Cc1ccccc1Oc1nccc(-c2c(-c3ccc(F)cc3)ncn2C2CCNCC2)n1           %            2.95
 7  C#Cc1cccc(Nc2ncnc3ccc(OCCCCNCCS(C)(=O)=O)cc23)c1           %            3.19
 8  CCS(=O)(=O)c1ccc(OC)c(Nc2ncc(-c3ccccc3Cl)o2)c1           %           -7.09
 9              CCc1nccc2c1nc(-c1nonc1N)n2CC           %            1.31
10  COc1cc2ncn(-c3cc(OCc4cccs4)c(C(N)=O)s3)c2cc1OC           %            1.28
11  FC(F)(F)c1cccc(Nc2nccc(-c3cnn4nc(-c5ccccc5)ccc34)n2)c1           %           -1.25
12      CCc1cccc(CC)c1/C=C/c1cncc(C(=O)NC)c1           %           -0.92
13  CN(C)CCOc1ccc(-c2cc(-c3ccc4c(c3)CCC4=NO)c(-c3ccncc3)o2)cc1           %           -2.82
14  c1ccc(-c2n[nH]cc2-c2ccnc(-c3ccc(OCCN4CCOCC4)cc3)c2)nc1           %            5.94
15  COc1ccc(C2=C(N3CCc4ccccc43)C(=O)NC2=O)cc1           %            3.69
16  COc1cc2ncn(-c3cc(OCc4ccccc4C(F)(F)F)c(C(C)=O)s3)c2cc1OC           %           -1.43
17  CN(C)CCCNc1nccc(-c2c(-c3ccc(F)cc3)nn3cc(C(F)(F)F)ccc23)n1           %            0.59
18  O=C(Nc1ccc(Oc2ccc3[nH]c(NC(=O)c4ccccc4)nc3c2)cc1)Nc1cc(C(F)(F)F)ccc1F           %            1.65
19  Fc1ccc(-c2ncn(C3CCNCC3)c2-c2ccnc(Oc3ccc(F)c(F)c3)n2)cc1           %           -1.06
20  CS(=O)(=O)CCNCc1ccc(-c2ccc3ncnc(Nc4ccc(OCc5ccccc5)c(Br)c4)c3c2)o1           %           -2.03

====

- experimental-target: Serine/threonine-protein kinase PAK 2 (Homo sapiens);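 note: values are mean percent inhibition of PAK2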
- run-parameters: at 0.1 µM
# inhibition values compiled below
measured-quantity: inhibition (%)

> print(dat)
                   compound.structure.string  measured.value
 1              CCc1nccc2c1nc(-c1nonc1N)n2CC            0.74
 2  NS(=O)(=O)c1ccc(N/N=C2\C(=O)Nc3ccc(C(=O)NCCCn4ccnc4)cc32)cc1            0.82
 3  COc1cc2ncn(-c3cc(OCCc4ccccc4)c(C(N)=O)s3)c2cc1OC            0.32
 4     NCc1ccc(-n2c(-c3nonc3N)nc3cnccc32)cc1            3.24
 5   O=C1Nc2ccc(I)cc2C1=Cc1cc(Br)c(O)c(Br)c1            1.87
 6     COc1cc(Nc2ncc(-c3ccccc3)o2)cc(OC)c1OC           -1.31
 7  N#Cc1ccc(Oc2nccc(-c3c(-c4ccc(F)cc4)ncn3C3CCNCC3)n2)cc1            1.65
 8  CN(C)c1ccc2c(c1)/C(=C/Nc1ccc(S(N)(=O)=O)cc1)C(=O)N2           -0.61
 9  Fc1ccc(-c2ncn(C3CCNCC3)c2-c2ccnc(Oc3ccc4c(c3)OCO4)n2)cc1            2.45
10  NC(=O)c1cc(-c2ccc(F)cc2)cc(-c2ccncc2)c1N             0.6
11  CS(=O)(=O)CCNCc1ccc(-c2ccc3ncnc(Nc4ccc(OCc5ccccc5)c(Br)c4)c3c2)o1            0.93
12  COc1cccc(/C=N/Nc2ncnc3c2cnn3-c2cccc(OC)c2)c1            1.74
13  CCS(=O)(=O)c1ccc(OC)c(Nc2ncc(-c3cccc(-c4ccccc4F)c3)o2)c1              -1
14  COc1cccc(-n2cnc3c(N/N=C/c4ccncc4)ncnc32)c1           -1.03
15  C/C(Nc1ccc(S(N)(=O)=O)cc1)=C1/C(=O)Nc2ccccc21           -1.56
16  Cc1ccc(C(=O)NC2CCC2)cc1-c1ccc(C(=O)NCC2CC2)cc1            2.22
17  C#Cc1cccc(Nc2ncnc3ccc(OCCCCNCCS(C)(=O)=O)cc23)c1            2.71
18     NC(=O)c1cc(-c2ccncc2)cc(-c2ccccc2)c1N            2.07
19     O=C(Nc1n[nH]c2nc(-c3ccco3)ccc12)C1CC1            0.42
20    Clc1ccc(CNc2nccc(-c3cnn4ncccc34)n2)cc1            0.78
21  COc1cc(C)c(N(C)C(=O)CN(C)C)cc1Nc1nc(Nc2cccc(F)c2C(N)=O)c2cc[nH]c2n1            1.63
22      CCc1cccc(CC)c1/C=C/c1cncc(C(=O)NC)c1             2.1

====

- Tested on: Tyrosine-protein kinase ABL1 (Homo sapiens), P00519 [E255K]
- Sequence (P00519 whole entry E255K): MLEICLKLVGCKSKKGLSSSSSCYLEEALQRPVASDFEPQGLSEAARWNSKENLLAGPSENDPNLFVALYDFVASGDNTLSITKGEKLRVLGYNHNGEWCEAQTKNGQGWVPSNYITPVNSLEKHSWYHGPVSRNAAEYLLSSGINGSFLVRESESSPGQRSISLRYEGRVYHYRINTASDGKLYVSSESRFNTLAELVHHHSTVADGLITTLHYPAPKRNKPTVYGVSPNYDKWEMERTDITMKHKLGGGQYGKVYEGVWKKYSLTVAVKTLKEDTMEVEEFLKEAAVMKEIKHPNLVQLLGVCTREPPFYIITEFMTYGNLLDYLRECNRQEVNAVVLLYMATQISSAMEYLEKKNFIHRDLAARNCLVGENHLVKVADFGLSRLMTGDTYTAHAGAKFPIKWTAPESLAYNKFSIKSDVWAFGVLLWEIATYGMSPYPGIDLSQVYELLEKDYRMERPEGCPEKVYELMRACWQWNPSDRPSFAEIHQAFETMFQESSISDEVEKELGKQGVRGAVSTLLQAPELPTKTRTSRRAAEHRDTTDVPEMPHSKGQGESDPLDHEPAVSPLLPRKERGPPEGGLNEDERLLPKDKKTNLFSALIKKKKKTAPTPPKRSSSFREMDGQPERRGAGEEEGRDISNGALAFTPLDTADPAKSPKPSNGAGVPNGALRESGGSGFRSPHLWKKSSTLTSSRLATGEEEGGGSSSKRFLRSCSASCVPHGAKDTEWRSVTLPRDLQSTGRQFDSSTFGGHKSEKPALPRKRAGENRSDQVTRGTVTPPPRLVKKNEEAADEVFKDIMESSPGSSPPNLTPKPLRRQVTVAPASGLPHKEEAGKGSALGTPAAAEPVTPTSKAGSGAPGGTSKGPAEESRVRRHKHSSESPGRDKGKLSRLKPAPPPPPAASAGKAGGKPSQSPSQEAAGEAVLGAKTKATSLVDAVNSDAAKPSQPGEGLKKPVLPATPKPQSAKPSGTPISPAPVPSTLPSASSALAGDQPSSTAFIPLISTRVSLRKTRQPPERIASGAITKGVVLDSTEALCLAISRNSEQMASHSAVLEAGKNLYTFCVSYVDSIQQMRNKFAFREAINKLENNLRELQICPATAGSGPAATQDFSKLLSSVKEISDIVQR
- run-parameters: at 1 µM
Measured inhibition accompanies every entry in the list below.
measured-quantity: inhibition (%)

> print(dat)
                                    molecule  measured.value
 1  COc1ccc2cc(-c3c(-c4ccncc4)nc(-c4ccc([S+](C)[O-])cc4C)n3C)ccc2c1 (stereo not given)            5.96
 2  Fc1ccc(-c2ncn(CCCN3CCOCC3)c2-c2ccncc2)cc1            0.13
 3  NC(=O)c1ccc(Oc2nccc(-c3c(-c4ccc(F)cc4)ncn3C3CCNCC3)n2)cc1            3.91
 4        CNC(=O)c1cncc(/C=C/c2c(C)cccc2C)c1            50.1
 5     NC(=O)c1cc(-c2ccncc2)cc(-c2ccccc2)c1N            30.6
 6  NS(=O)(=O)c1ccc(N/N=C2\C(=O)Nc3ccc(C(=O)NCCCn4ccnc4)cc32)cc1            10.9
 7  CN(C)CCCNc1nccc(-c2c(-c3ccc(F)cc3)nn3cc(C(F)(F)F)ccc23)n1            5.43
 8  COc1cc(N2CCN(C(C)C)CC2)ccc1Nc1nc(Nc2ccc(F)cc2C(=O)NC[C@@H](O)CO)c2cc[nH]c2n1            5.35
 9  Cc1ccc(C(=O)NC(C)C)cc1-c1ccc(C(=O)NCC2CC2)cc1           -0.81
10  NC(=O)c1cc(-c2ccc(F)cc2)cc(-c2ccncc2)c1N            4.43

====

- experimental-target: RAF proto-oncogene serine/threonine-protein kinase (Homo sapiens) (UniProt P04049);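 note: values are the mean percent inhibition of CRAF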
- Sequence (P04049 whole entry): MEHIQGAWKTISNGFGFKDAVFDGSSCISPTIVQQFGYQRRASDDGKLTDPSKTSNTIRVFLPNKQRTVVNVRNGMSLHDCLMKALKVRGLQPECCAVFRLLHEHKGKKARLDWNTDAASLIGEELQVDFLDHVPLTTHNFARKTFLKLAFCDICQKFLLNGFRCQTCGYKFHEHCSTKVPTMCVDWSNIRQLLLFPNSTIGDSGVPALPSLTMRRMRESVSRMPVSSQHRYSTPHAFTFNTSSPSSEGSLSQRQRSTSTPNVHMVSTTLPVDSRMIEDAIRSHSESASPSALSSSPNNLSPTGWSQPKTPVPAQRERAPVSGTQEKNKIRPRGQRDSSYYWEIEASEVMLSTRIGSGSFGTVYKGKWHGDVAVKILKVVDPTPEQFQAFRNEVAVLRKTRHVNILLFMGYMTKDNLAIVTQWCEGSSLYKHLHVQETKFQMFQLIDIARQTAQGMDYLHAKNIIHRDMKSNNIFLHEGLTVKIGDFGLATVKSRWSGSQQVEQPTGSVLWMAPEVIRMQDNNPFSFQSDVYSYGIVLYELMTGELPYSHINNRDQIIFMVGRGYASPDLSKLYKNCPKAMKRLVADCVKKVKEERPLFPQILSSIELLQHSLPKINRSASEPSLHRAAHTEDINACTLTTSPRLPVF
- run-parameters: at 1 µM
measured-quantity: inhibition (%)

> print(dat)
                                    molecule  measured.quantity  value.unit  measured.value
 1  FC(F)(F)c1cccc(Nc2nccc(-c3cnn4nc(-c5ccccc5)ccc34)n2)c1         inhibition           %           -0.15
 2              CCc1nccc2c1nc(-c1nonc1N)n2CC         inhibition           %           -5.16
 3  COc1cccc(/C=N/Nc2ncnc3c2cnn3-c2cccc(OC)c2)c1         inhibition           %           -1.82
 4  Nc1nccc(-c2c(-c3ccc(F)cc3)ncn2C2CCC(O)CC2)n1 (configuration not stated)         inhibition           %           -9.19
 5  CCc1ccc(Oc2nccc(-c3c(-c4ccc(F)cc4)ncn3C3CCNCC3)n2)cc1         inhibition           %           -0.51
 6  CN(C)CCOc1ccc(-c2cc(-c3ccc4c(c3)CCC4=NO)c(-c3ccncc3)o2)cc1         inhibition           %            39.8
 7  NS(=O)(=O)c1ccc(N/N=C2\C(=O)Nc3ccc(-c4cnco4)cc32)cc1         inhibition           %           -0.01
 8  N#Cc1ccc(Oc2nccc(-c3c(-c4ccc(F)cc4)ncn3C3CCNCC3)n2)cc1         inhibition           %           -0.95
 9  CN(C)c1ccc2c(c1)/C(=C/Nc1ccc(S(N)(=O)=O)cc1)C(=O)N2         inhibition           %           -6.53
10        CNC(=O)c1cncc(/C=C/c2c(C)cccc2C)c1         inhibition           %           -0.25
11       Fc1ccc(-c2c(-c3ccncc3)nc3n2CCS3)cc1         inhibition           %           -2.98
12  COc1cc(C)c(N(C)C(=O)CN(C)C)cc1Nc1nc(Nc2cccc(F)c2C(N)=O)c2cc[nH]c2n1         inhibition           %           -0.93
